# assay.explanation: HepG2 cell viability effects, profiling panel, calcein-AM fluorescence, 48 h, basal (AID 1164); also: test concentration not given here
# run.parameters: higher = more signal
The threshold is inclusive: z-score of exactly -0.5 counts as Condition met; values below receive Condition not met.

- C=CCNC(=O)[C@H]1[C@@H]2C(=O)O[C@@H](c3ccccc3)[C@@H](c3ccccc3)N2[C@@H](c2ccc(O)cc2)[C@]12C(=O)N(C(=O)OCCOC)c1ccc(C#CC3=CCCCC3)cc12: Condition met
- O=C1[C@H]2[C@H]3[C@H](O)[C@H](O)CC(=NOCc4ccccc4)[C@H]3CC[C@H]2C(=O)N1c1cccc(Oc2ccccc2)c1: Condition not met
- COc1ccc(OC[C@H]2Cc3c(-c4ccccc4)nc4c(c3CO2)CN(CCOc2ccccc2)CC4)cc1: Condition met
- C=C(/C(=C/C[C@@H](OC(=O)c1ccncc1)c1ccc(OCCO)cc1)c1cnc2ccccc2c1)C(C)C: Condition met

Lookup: Kindly determine if z-score recorded for COCCNC(=O)OCC1CCCC2(CC(OC(=O)NCCc3ccc(F)cc3)CC(CCC(=O)N[C@@H](C)C(=O)OC)O2)O1 (stereo not given in full) is above or exactly -0.5.
Found: Condition met

###

# assay.explanation: small-molecule microarray binders of probe aWnt5a, primary screen, biochemical, biotinylated probe, 635/667 nm fluorescence (AID 1113);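 also: score merges 667 nm fluorescence intensity with signal-to-noise per printed feature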
# run.parameters: higher = more signal
The threshold is inclusive: composite z-score of exactly -0.05 counts as yes (1); values below receive no (0).

Below are worked cases with known answers.
* CC(CCN1CCc2nc(-c3ccccc3)c(-c3ccccc3)cc2C1)=NO[C@@H](C)c1cn([C@H](CO)Cc2ccccc2)nn1 | no (0)
* CCCC[C@@H](O)C1=C(C)C[C@H]2C(=O)N(Cc3ccccc3)C(=O)[C@H]2[C@H]1CO | yes (1)
* CN1C(=O)C2C=CC(C(O)c3ccc(I)cc3)N(NC(=O)OC(C)(C)C)C2C1=O (configuration not stated) | yes (1)
* CO[C@@H]1COC(=O)[C@@H]2CCCN2C(=O)[C@@H](C)COC(=O)[C@H](COCc2ccccc2)NC(=O)CC=C[C@H]1C | no (0)
* CC(C)=CCCC(C)=CCON=C1C[C@@H](O)[C@@H](O)[C@@H]2[C@@H]3C(=O)N(C[C@@H]4CCCO4)C(=O)[C@@H]3CC[C@@H]12 | no (0)

Lookup: Kindly determine if composite z-score recorded for `CC(=O)OC[C@H]1O[C@H](CCON=C(C)CCC(=O)OC[C@H]2O[C@H](C#Cc3ccccc3)C=C[C@@H]2Oc2ccc(C)cc2)C=C[C@@H]1OC(C)=O` is above or exactly -0.05.
Found: no (0)

Lookup: Kindly determine if composite z-score recorded for `C[C@@H]1CC[C@H]2C(=O)O[C@H](COc3ccc(C(C)(C)C)cc3)CN2[C@H]1c1ccc(Br)cc1` is above or exactly -0.05.
Found: yes (1)

###

# Tested on: wheat germ agglutinin (Triticum aestivum), Alexa647-labelled
# assay.explanation: wheat germ agglutinin binders on compound microarrays, profiling panel, artefact control for SMM control-protein annotation, biochemical, small-molecule microarray, 635/667 nm fluorescence (AID 1140);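 also: score merges 667 nm feature emission with signal to noise over triplicate slides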
# run.parameters: WGA-A647 binding, 635 nm fluorescence, higher = more signal
measurement.kind: composite z-score
Answers are plain numbers.

// each molecule listed below needs its composite z-score
1. O=C(CS)NCCCCCNC(=O)[C@@H]1C[C@@H]2C(=O)N[C@@H](Cc3ccccc3)C(=O)N2[C@@H]1c1ccc(O)cc1
2. COCCCNC(=O)[C@@]1(CCS(=O)(=O)c2ccccc2)N=C(c2ccc(OCCCO)cc2)O[C@H]1c1ccccc1
3. C#CCCCON=C1C[C@@H](O)[C@@H](O)[C@@H]2[C@@H]3C(=O)N(CCC(=O)OCC)C(=O)[C@@H]3CC[C@@H]12

Found:
0.304
0.716
0.662

Lookup: Report the value of composite z-score obtained on wheat germ agglutinin (Triticum aestivum), Alexa647-labelled for CCN(CC)c1ccc(N2CC=CC34O[C@@H]5/C=C\CCC(C)OC(=O)C5[C@H]3C(=O)N(CCCO)[C@@H]4C2=O)cc1 (some centres undefined) .
Found: -0.529

###

# assay.explanation: P. aeruginosa biofilm formation inhibitors, primary screen, PAO1 strain, BacTiter-Glo luminescence, LB-PBS (AID 1144)
# run.parameters: 12 h, higher = more signal
measurement.kind: z-score
Give bare numbers.

Would you please look over these solved cases?
- CC=CC1=C(CO)[C@H](O)[C@H]2O[C@H]2[C@H]1O: 1.58
- CO[C@@H]1COC(=O)CC=C[C@@H](C)COC(=O)[C@H](COCc2ccccc2)NC(=O)CC=C[C@H]1C: 0.324
- C#C[C@@H](CC)O[Si](C#Cc1ccc(Oc2ccccc2)cc1)(C(C)C)C(C)C: 0.159

Now look at this one.
Lookup: # return recorded z-score for entry `O=C(NN=C1C[C@@H](O)[C@@H](O)[C@@H]2[C@@H]3C(=O)N(c4ccc(F)cc4F)C(=O)[C@@H]3CC[C@@H]12)OCc1ccccc1`
Found: 1.21

###

Kindly supply the reported composite z-score values for the records listed here.
# Test system: Neuregulin-1 EGF-like domain
# assay.explanation: binders of neuregulin-1 EGF-like domain, primary screen, biochemical, small-molecule microarray, 635 nm fluorescence (AID 1081);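 also: binding of the protein to compounds printed on small-molecule microarray slides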
# run.parameters: small-molecule microarray binding, higher = more signal
Give bare numbers.

Would you please look over these solved cases?
* COCCCNC(=O)[C@@]1(CCS(=O)(=O)c2ccccc2)N=C(c2ccc(OCCCO)cc2)O[C@H]1c1ccccc1 | 1.31
* CO[C@H]1COC(=O)[C@H](C)COC(=O)CC=C[C@@H](C)[C@H](OC)COC(=O)CC=C[C@@H]1C | -0.311
* O=C1c2ccccc2[C@@]2(Cc3ccccc3N(C3CC3)C2=O)[C@H](c2ccc(CO)cc2)N1Cc1ccccc1C(F)(F)F | -0.0465
* C[C@@H]1C=CCC(=O)OC[C@H](C)C(=O)OC[C@H]2O[C@H]1C=C[C@H]2O | 0.615
* CC(C)(C)N1CC=CC23O[C@@H]4C=CCCOC(=O)C4[C@H]2C(=O)N(CCCCCO)[C@@H]3C1=O (some centres not stated) | 1.28

// each compound listed below needs its composite z-score
1. O=C(NN=C1C[C@@H](O)[C@@H](O)[C@@H]2[C@@H]3C(=O)N(c4cccc(Oc5ccccc5)c4)C(=O)[C@@H]3CC[C@@H]12)OCc1ccccc1
2. CCN1C(=O)[C@H]2[C@H]3[C@H](O)[C@H](O)CC(=NOC(C)CN4CCCCc5nc(C)c(C)cc54)[C@@H]3CC[C@H]2C1=O (some centres not stated)

Found:
1: -0.157; 2: -0.274

###

# system: Fibroblast growth factor 2 (Homo sapiens) (UniProt P09038)
# Sequence (P09038 whole entry, looked up): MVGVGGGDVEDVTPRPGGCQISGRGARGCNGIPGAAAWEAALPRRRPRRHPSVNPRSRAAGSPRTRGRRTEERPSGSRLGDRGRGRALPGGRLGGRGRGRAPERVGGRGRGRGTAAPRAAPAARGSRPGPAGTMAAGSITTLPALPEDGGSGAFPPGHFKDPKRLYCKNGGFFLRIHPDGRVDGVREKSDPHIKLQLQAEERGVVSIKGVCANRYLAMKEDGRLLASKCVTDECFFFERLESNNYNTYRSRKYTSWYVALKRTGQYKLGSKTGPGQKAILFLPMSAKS
# assay.explanation: FGF2 binders on small-molecule microarrays, primary screen, biochemical, small-molecule microarray, 635/667 nm fluorescence (AID 1133)
# run.parameters: small-molecule microarray binding, FGF2, fluorescence 635/667; higher = more signal
The threshold is inclusive: composite z-score of exactly 0.8 counts as 1; values below receive 0.

Below are worked cases with known answers.
* COCCCNC(=O)[C@]1(Cc2ccccc2)N=C(c2ccc(OCCCO)cc2)O[C@@H]1c1ccccc1 | 1
* CCc1cc2c(nc1CC)CCN(CCC(C)=NO[C@@H](C)c1cc(-c3c(C)cc(C)cc3C)no1)C2 | 0
* CN1C(=O)C2C=CC(C(O)c3ccc(I)cc3)N(NC(=O)OC(C)(C)C)C2C1=O (configuration not stated) | 0
* COc1ccc(COC(=O)NN=C2C[C@@H](O)[C@@H](O)[C@@H]3[C@@H]4C(=O)N(Cc5ccc6c(c5)OCO6)C(=O)[C@@H]4CC[C@@H]23)cc1 | 0
* CO[C@H]1COC(=O)[C@H](C)COC(=O)CC=C[C@@H](C)[C@H](OC)COC(=O)CC=C[C@@H]1C | 1

Lookup: Kindly determine if composite z-score recorded for `CCOC(=O)NN=C1C[C@@H](O)[C@@H](O)[C@@H]2[C@@H]3C(=O)N(C[C@@H]4CCCO4)C(=O)[C@@H]3CC[C@@H]12` is above or exactly 0.8.
Found: 0

Lookup: Kindly determine if composite z-score recorded for `COCCOC(=O)N1C(=O)[C@@]2(c3ccccc31)[C@H](C(N)=O)[C@H]1C(=O)O[C@H](c3ccccc3)[C@H](c3ccccc3)N1[C@@H]2c1ccccc1OCCO` is above or exactly 0.8.
Found: 1

###

Kindly supply the reported composite z-score values for the records listed here.
# assay.explanation: small-molecule microarray binders of probe aShh, primary screen, biochemical, biotinylated probe, 635/667 nm fluorescence (AID 1114);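 also: probe is biotin-labelled aShh protein from a stem cell growth factor screen; measures binding of labelled protein to compounds printed on the slide; score merges feature fluorescence at 667 nm with signal-to-noise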
# run.parameters: higher = more signal
Numbers only.

Would you please look over these solved cases?
- CC(=O)C[C@H](O)[C@@H](NC(=O)OC(C)(C)C)C(C)C: 0.0121
- COC(=O)CC1OC1[C@H](C)[C@@H](OC)C(C)C (stereo partly specified): -0.147

// each compound listed below needs its composite z-score
1. CCOC(=O)C1=CCC(c2cc3ccccc3[nH]2)NC1 (stereo unspecified)
2. COc1ccc(O[C@H]2C=C[C@@H](c3ccccc3)O[C@@H]2COC(=O)CCC(C)=NOC[C@@H](C)[C@H](OCc2ccccc2)C(C)C)cc1

Found:
1: 0.204; 2: -0.283
